Recorded values, source ChEMBL document CHEMBL5532750.

test system: Ishikawa; assay: Antiproliferative activity against human Ishikawa cells assessed as inhibition of VEGF secretion measured after 24 hrs by ELISA assay; type: functional, cell-based
MEASUREMENT TYPE: pIC50
The meaning of pIC50 here: minus log10 of the concentration in molar units.

Req: Returns the measured pIC50 for the input molecule. Input: CCN(CC)CCCOc1ccc(-n2c3c(c4ccccc4c2=O)C(=O)c2ccccc2-3)cc1
Resp: 8.51

----------
tested on: Ishikawa; test: Anticancer activity against human Ishikawa cells assessed as cell mortality rate at 600 uM measured after 48 hrs by MTT assay relative to control; assay type: functional
Rule: Activity under 20% gives N, otherwise Y.

Req: Activity >= 20% for O=C(O)c1ccc(C(=O)O)c(/N=C/c2ccc(B(O)O)cc2)c1 ?
Resp: Y
